System: Puccinia recondita f. sp. tritici
Assay: Test H: wheat leaf rust, test suspension sprayed after inoculation of wheat seedlings, visual disease rating
Type: in vivo
Conditions: 200 ppm; 100 = 100% disease control, 0 = no control relative to controls
Listed here: items and their measured Test H disease control rating.
Give the value in % but do not write % after it.

As a guide, the following entries are already answered.
| smilesCode | Test H disease control rating, % |
| --- | --- |
| COc1cc(F)c(-c2c(Cl)nc(Br)n2-c2cccc(OC(F)F)c2)c(F)c1 | 27 |
| COc1cc(OC)cc(-n2c(C)nc(Cl)c2Cc2c(F)cc(F)cc2F)c1 | 0 |
| COc1ccc(F)c(-c2c(Cl)nc(Br)n2-c2ccc(Cl)nc2)c1F | 9 |

Kindly review the next molecule as well.
Query: # input molecule: Fc1ccc(-n2c(Cl)nc(Cl)c2-c2ccc(Cl)c(F)c2)c(Cl)c1 ; wanted: its Test H disease control rating
Response: 17
